- EXPERIMENTAL_PROTOCOL: NCI Yeast Anticancer Drug Screen. Data for the rad50 strain (AID 155);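 further: 0% = growth of vehicle-only cultures of the same strain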
- MEASUREMENT_PARAMETERS: S. cerevisiae rad50 strain growth inhibition, active compounds read high; at 50.0 µM unless noted
Compounds without any hit were thinned out: in the full panel of roughly 79,000, 15% have a hit.
EXPERIMENTAL_ENDPOINT: growth inhibition (%)

>  <COMPOUND>
CCOC(=O)c1sc(C(=O)O)cc1-c1cccs1

>  <EXPERIMENTAL_ENDPOINT>
growth inhibition

>  <VALUE_MEASURED>
3.9

$$$$
>  <COMPOUND>
C[N+]1(CCC(=O)c2ccccc2)CCOCC1

>  <EXPERIMENTAL_ENDPOINT>
growth inhibition

>  <VALUE_MEASURED>
42

$$$$
>  <COMPOUND>
O=C(O)CC(c1ccccc1)C(CC(=O)O)c1ccccc1 (stereo unspecified)

>  <EXPERIMENTAL_ENDPOINT>
growth inhibition

>  <VALUE_MEASURED>
-3.8

$$$$
>  <COMPOUND>
CC(C)(CO)CNC(=O)C(C)(C)CO

>  <EXPERIMENTAL_ENDPOINT>
growth inhibition

>  <VALUE_MEASURED>
7.8

$$$$
>  <COMPOUND>
COc1cc2c3cc1Oc1cc(ccc1O)C[C@@H]1c4c(cc(OC)c(O)c4Oc4ccc(cc4)C[C@@H]3[N+](C)(C)CC2)CC[N+]1(C)C

>  <EXPERIMENTAL_ENDPOINT>
growth inhibition

>  <VALUE_MEASURED>
-23.2

$$$$
>  <COMPOUND>
COc1cccc(/C=C/c2cnc3ccccc3n2)c1OC

>  <EXPERIMENTAL_ENDPOINT>
growth inhibition

>  <VALUE_MEASURED>
-1.25

$$$$
>  <COMPOUND>
COc1cc(/C=C/C(=O)O)ccc1O

>  <EXPERIMENTAL_ENDPOINT>
growth inhibition

>  <VALUE_MEASURED>
-6.1

$$$$
>  <COMPOUND>
CCCCCCCCN(CCCCCCCC)CC(O)c1ccnc2c(Cl)cc(Cl)cc12 (stereo unspecified)

>  <EXPERIMENTAL_ENDPOINT>
growth inhibition

>  <VALUE_MEASURED>
16.5

$$$$
>  <COMPOUND>
Cc1ccc2nc(C=Nc3ccccc3Cl)cc(C)c2c1

>  <EXPERIMENTAL_ENDPOINT>
growth inhibition

>  <VALUE_MEASURED>
-7.4

$$$$
>  <COMPOUND>
CCOC(=O)c1c(NS(=O)(=O)c2ccc(C)cc2)sc(C)c1-c1ccccc1

>  <EXPERIMENTAL_ENDPOINT>
growth inhibition

>  <VALUE_MEASURED>
-21.4

$$$$
>  <COMPOUND>
Cc1ccc(OCC(=O)N2N=C(c3ccccc3)CC2(O)c2ccccc2)cc1 (stereo unspecified)

>  <EXPERIMENTAL_ENDPOINT>
growth inhibition

>  <VALUE_MEASURED>
-7.6

$$$$

====

- EXPERIMENTAL_PROTOCOL: NCI Yeast Anticancer Drug Screen. Data for the cln2 rad14 strain (AID 165);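 further: 0% = growth equal to vehicle treated cultures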
- MEASUREMENT_PARAMETERS: S. cerevisiae cln2 rad14 strain, active compounds read high; at 50.0 µM unless noted
About 79,000 compounds went through this panel and 15% of them were active in at least one assay; those are over-represented in the sample as a whole. The source made the active and inactive calls. Cut-off read from the data, not from the text of the source: active = growth inhibition above about 70%; inactive = the rest.
# growth inhibition listing for each entry below
EXPERIMENTAL_ENDPOINT: growth inhibition

>  <COMPOUND>
NC(=S)Nc1nnc(-c2ccc(-c3nnc(NC(N)=S)o3)cc2)o1

>  <EXPERIMENTAL_ENDPOINT>
growth inhibition

>  <VALUE_MEASURED>
5.35% (inactive)

$$$$
>  <COMPOUND>
O=c1[nH]cnc2c1ccc1[nH]ncc12

>  <EXPERIMENTAL_ENDPOINT>
growth inhibition

>  <VALUE_MEASURED>
-42.2% (inactive)

$$$$
>  <COMPOUND>
CS(=O)(=O)CS(C)(=O)=O

>  <EXPERIMENTAL_ENDPOINT>
growth inhibition

>  <VALUE_MEASURED>
14.5% (inactive)

$$$$
>  <COMPOUND>
CC1(C)C2CC(O)C1CCC2=O (stereo unspecified)

>  <EXPERIMENTAL_ENDPOINT>
growth inhibition

>  <VALUE_MEASURED>
6% (inactive)

$$$$
>  <COMPOUND>
COc1cc2c3cc1Oc1cc(ccc1O)C[C@@H]1c4c(cc(OC)c(O)c4Oc4ccc(cc4)C[C@@H]3[N+](C)(C)CC2)CC[N+]1(C)C

>  <EXPERIMENTAL_ENDPOINT>
growth inhibition

>  <VALUE_MEASURED>
68.6% (inactive)

$$$$
>  <COMPOUND>
O=C(NNC(=O)c1ccc2ccccc2c1)c1ccc(Cl)cc1

>  <EXPERIMENTAL_ENDPOINT>
growth inhibition

>  <VALUE_MEASURED>
3.55% (inactive)

$$$$

====

- EXPERIMENTAL_PROTOCOL: NCI Yeast Anticancer Drug Screen. Data for the mlh1 rad18 strain (AID 175)
- MEASUREMENT_PARAMETERS: S. cerevisiae mlh1 rad18 strain growth inhibition; at 50.0 µM unless noted
The panel holds about 79,000 compounds, 15% with a hit somewhere; the sample as a whole holds those more often. Activity calls are given as the source filed them. Cut-off read from the data, not from the text of the source: active = growth inhibition above about 70%; inactive = the rest.
Classes used: active, inactive

>  <COMPOUND>
NC(=O)Cc1ccc2c3c(cccc13)CC2

>  <CLASS>
inactive

$$$$
>  <COMPOUND>
O=CC(=O)O

>  <CLASS>
inactive

$$$$
>  <COMPOUND>
CC(O)CNC1=CC(=O)C(=O)c2ccccc21 (centres undefined)

>  <CLASS>
inactive

$$$$
>  <COMPOUND>
CC(C)(O)C[N+](=O)[O-]

>  <CLASS>
inactive

$$$$
>  <COMPOUND>
O=C(COc1cc(Cl)c(Cl)cc1Cl)Nc1ccc(Cl)cc1

>  <CLASS>
inactive

$$$$
>  <COMPOUND>
C=C1C(=O)O[C@@H]2C[C@@]3(C)[C@H](O)CCC(=C)[C@@H]3C[C@H]12

>  <CLASS>
inactive

$$$$
>  <COMPOUND>
O=C(CC(=O)c1cc(Cl)ccc1O)c1ccc2ccccc2n1

>  <CLASS>
inactive

$$$$
>  <COMPOUND>
CCSC(SCC)=C1C(=O)N(c2ccccc2)N=C1C

>  <CLASS>
inactive

$$$$
>  <COMPOUND>
COc1ccc(/C=C/c2ccc(OC)cc2)cc1

>  <CLASS>
inactive

$$$$
>  <COMPOUND>
CCN(CC)CCOC(=O)c1cc2ccccc2s1

>  <CLASS>
inactive

$$$$
>  <COMPOUND>
COCc1ccc2c(c1)C(O)NC(=O)O2 (centres undefined)

>  <CLASS>
inactive

$$$$
>  <COMPOUND>
CC(C)(C)C1CCC2c3c([nH]c4ccccc34)C3C(=O)N(c4cc(Br)cc(Br)c4)C(=O)C3C2C1 (centres undefined)

>  <CLASS>
inactive

$$$$
>  <COMPOUND>
Nc1ncnc2c1ncn2C1OC(CSCC(F)(F)F)C(O)C1O (centres undefined)

>  <CLASS>
inactive

$$$$
>  <COMPOUND>
CN(C)c1ccc(-c2nc(-c3cc4c(ccc5ccccc54)oc3=O)cs2)cc1

>  <CLASS>
inactive

$$$$
>  <COMPOUND>
CCCCCCCCCCCC(=O)OC(COCCC(C)C)COCCC(C)C

>  <CLASS>
inactive

$$$$
>  <COMPOUND>
CC1CC(=O)Nc2nc3ccccc3n21 (centres undefined)

>  <CLASS>
inactive

$$$$
>  <COMPOUND>
COc1cccc(N(CN2CC=CC2=O)C(C)=O)c1

>  <CLASS>
inactive

$$$$
>  <COMPOUND>
O=C(O)c1ccc(NCO)cc1

>  <CLASS>
inactive

$$$$
>  <COMPOUND>
CC1=C(C(=O)Nc2ccccc2)C(c2ccc(N(C)C)cc2)C(C(=O)Nc2ccccc2)=C(C)N1

>  <CLASS>
inactive

$$$$
>  <COMPOUND>
COc1ccc(C(=O)C(CN(C)C)CN(C)C)c(OC)c1

>  <CLASS>
inactive

$$$$
>  <COMPOUND>
CCOC(=N)C1(O)CCCCC1

>  <CLASS>
inactive

$$$$
>  <COMPOUND>
O=c1c2ccccc2[nH]c(=S)n1C1CCCC1

>  <CLASS>
inactive

$$$$
>  <COMPOUND>
O=CC[C@]12CC(=O)OC(C=CC13OCCO3)C2

>  <CLASS>
inactive

$$$$
>  <COMPOUND>
COc1cc(CC2(C#N)c3ccccc3C=CN2C(=O)c2ccccc2)c(Oc2cc(CC3(C#N)c4ccccc4C=CN3C(=O)c3ccccc3)ccc2OC)cc1OC (centres undefined)

>  <CLASS>
inactive

$$$$
>  <COMPOUND>
O=C(O)c1ccc([N+](=O)[O-])cc1Br

>  <CLASS>
inactive

$$$$
>  <COMPOUND>
CC(C)(C)OC(=O)NNS(=O)(=O)CCC(NC(=O)OCc1ccccc1)C(=O)OCc1ccccc1 (centres undefined)

>  <CLASS>
active

$$$$
>  <COMPOUND>
O=C(/C=C/c1ccccc1)CSc1ncn[nH]1

>  <CLASS>
inactive

$$$$
>  <COMPOUND>
CC(=O)OC1CCC2(C)C(CCC3(C)C2C(=O)C=C2C4CC(C)(C(=O)O)CCC4(C)CCC23C)C1(C)C (centres undefined)

>  <CLASS>
inactive

$$$$
>  <COMPOUND>
Cc1ccc(O)c(-c2ccnn2-c2ccccc2)c1

>  <CLASS>
inactive

$$$$
>  <COMPOUND>
O=C(CCN1C(=O)c2ccccc2C1=O)Nc1c(I)cc(I)c(C(=O)O)c1I

>  <CLASS>
inactive

$$$$
>  <COMPOUND>
Cc1ccc(N[P+](c2ccccc2)(c2ccccc2)c2ccccc2)cc1.[Cl][Fe]([Cl])([Cl])[Cl]

>  <CLASS>
inactive

$$$$
>  <COMPOUND>
Cc1cccc2oc3c(c(=O)c12)CC(O)C(C)(C)O3 (centres undefined)

>  <CLASS>
inactive

$$$$
>  <COMPOUND>
Oc1ccc(O)c(CNc2ccc(C(O)C(F)(F)F)cc2)c1 (centres undefined)

>  <CLASS>
inactive

$$$$
>  <COMPOUND>
O=C1OC(c2ccccc2)Cc2ccccc21 (centres undefined)

>  <CLASS>
inactive

$$$$
>  <COMPOUND>
CCNc1ncnc2ncn(C)c12

>  <CLASS>
inactive

$$$$
>  <COMPOUND>
Cc1cc(Cl)ccc1NC(=O)CC/C(CC(=O)C(C)C)=N\NC(=O)C[n+]1ccccc1

>  <CLASS>
inactive

$$$$
>  <COMPOUND>
O=C1CCCC(=O)N1n1c(Cc2ccc(Cl)cc2)n[nH]c1=O

>  <CLASS>
inactive

$$$$
>  <COMPOUND>
CCOc1ccc(N=Nc2c(O)n(-c3ccc(Cl)cc3)c(=S)n(-c3ccccc3)c2=O)cc1

>  <CLASS>
inactive

$$$$
>  <COMPOUND>
N#C/C(=C\c1ccccc1)c1cccc(F)c1

>  <CLASS>
inactive

$$$$
>  <COMPOUND>
COc1ccc(OC)c(N)c1

>  <CLASS>
inactive

$$$$
>  <COMPOUND>
NC(=O)OCCOC(N)=O

>  <CLASS>
inactive

$$$$
>  <COMPOUND>
Cc1ccc2[nH]c(C(=O)O)cc2c1

>  <CLASS>
inactive

$$$$
>  <COMPOUND>
Cc1cc(Cl)cc2c1OC(C)OC2=O (centres undefined)

>  <CLASS>
inactive

$$$$
>  <COMPOUND>
COc1ccc(C=NCC(OC)OC)cc1OCc1ccccc1

>  <CLASS>
inactive

$$$$
>  <COMPOUND>
CCCCN(C#N)CCCC

>  <CLASS>
inactive

$$$$
>  <COMPOUND>
Cc1ccc(Nc2nc(-c3ccc(-c4ccc([N+](=O)[O-])cc4)o3)cs2)cc1

>  <CLASS>
inactive

$$$$
>  <COMPOUND>
CCOC(=O)C(=O)C(NC(=O)Cc1ccccc1)C(=O)OCC (centres undefined)

>  <CLASS>
inactive

$$$$
>  <COMPOUND>
COc1cc(Cc2nccc3cc(OC)c(OC)cc23)c(C(C)=O)cc1OC

>  <CLASS>
inactive

$$$$
>  <COMPOUND>
C=C1CC2CC[C@@]34C[C@@H]5O[C@@H]6C(O[C@H]7CC[C@H](CC(=O)OC8[C@@H](C)C9OC%10C[C@]%11(C[C@@H]%12O[C@@]%13(C[C@@H](C)[C@@H]%12O%11)C[C@H](C)[C@@H]%11OC%12CC(C(O)CO)OC%12C[C@@H]%11O%13)OC%10CC9O[C@H]8C[C@H]8O[C@@H](CC[C@@H]1O2)C[C@@H](C)C8=C)O[C@@H]7[C@@H]6O3)C5O4 (some centres undefined)

>  <CLASS>
active

$$$$
